B1: MYBL2 (parent)
chain: IAKHLKGRLGKQCRERWHNHLNPE

variants of: B1; assay: protein stability index of a GFP-peptide fusion (GPS, HEK-293T) (PSI 1-6); higher = more stable; conditions: c terminus: a fixed tail appended;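 also: lentivirally expressed fusions sorted by FACS into six bins by GFP to DsRed ratio, PSI derived from sequencing read proportions per bin multiplied by bin number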
Rule: protein stability index under 2 gives false (0), otherwise true (1).

{"variantName": "H18N", "assignedLabel": "true (1)"}
{"variantName": "G10F", "assignedLabel": "true (1)"}
{"variantName": "A2P", "assignedLabel": "false (0)"}
{"variantName": "H20I", "assignedLabel": "false (0)"}
{"variantName": "Q12T", "assignedLabel": "false (0)"}
{"variantName": "H20Q", "assignedLabel": "false (0)"}
{"variantName": "A2I", "assignedLabel": "false (0)"}
{"variantName": "Q12H", "assignedLabel": "true (1)"}
{"variantName": "R16C", "assignedLabel": "true (1)"}
{"variantName": "N19S", "assignedLabel": "false (0)"}
